Values were extracted from ChEMBL document CHEMBL1153031.

# Method description: Cytotoxicity against mouse RAW264.7 cells assessed as cell viability at 10 uM after 24 hrs by MTT assay
# Type: cell-based
# Experimental conditions: read-out: Activity
Measured endpoint: viability at 24 h, 10 µM

COc1cc(/C=C/C(=O)/C=C/c2ccc(OC(C)=O)c(OC)c2)ccc1OC(C)=O | > 90%

---

# Method description: Cytotoxicity against mouse RAW264.7 cells assessed as cell viability at 3 uM after 24 hrs by MTT assay
# Format: cell-based
# Experimental conditions: read-out: Activity
Measured endpoint: viability at 24 h, 3 µM

COc1cc(/C=C/C(=O)/C=C/c2ccc(OC(C)=O)c(OC)c2)ccc1OC(C)=O | > 90%
